The values you see were collected from ChEMBL document CHEMBL1139217.

- experiment: Oral bioavailability in Sprague-Dawley rat at 0.9 mg/kg, po
- Format: ADME, organism-based
- run conditions: in vivo
So I've got a bunch of compounds here, and I need their bioavailability values.
Output spec: scalar in %, unitless text.

The reported bioavailability of the compound CC1=C(C(=O)Nc2ccc3[nH]ncc3c2)C(c2ccc(Cl)c(Cl)c2)CC(=O)N1 (stereo not drawn) [GSK-299115A] was 1

Per the records, this compound ( CC1=C(C(=O)Nc2ccc3[nH]ncc3c2)C(c2ccc(C(F)(F)F)cc2)CC(=O)N1 (stereo not drawn) ) has bioavailability equal to 22

// CC1=C(C(=O)Nc2cc(Cl)c3[nH]ncc3c2)C(c2ccc(C(F)(F)F)cc2)CC(=O)N1 (stereo not drawn) [GSK-466317A] : bioavailability value = 29
